Known DHA level in pancreas of a selection of molecules
System: CFTR−/− mice
Assay summary: Fatty acid levels (GC/MS) in pancreas and lung cells of CFTR−/− mice fed n-3 fatty acids
Type: in vivo, mouse
Setup conditions: CFTR-/- mice, 40 mg/day for one week (fish oil: dose equivalent to 40 mg DHA, 60 mg EPA, 15 mg LNA); mean ± S.D.
Quantity: DHA level in pancreas

> print(dat)
                                   molecule  measured.target              result
1  CC/C=C\C/C=C\C/C=C\C/C=C\C/C=C\CCCC(=O)O [EPA, Eicosapentaenoic acid, reference compound]     CFTR−/− mice   2.2 ± 0.4 nmol/mg
2  CC/C=C\C/C=C\C/C=C\C/C=C\C/C=C\CCCCCC(=O)O     CFTR−/− mice   3.7 ± 0.4 nmol/mg
3  CC/C=C\C/C=C\C/C=C\CCCCCCCC(=O)O [LNA, α-linolenic acid, reference compound]     CFTR−/− mice  0.7 ± 0.07 nmol/mg
4  CC/C=C\C/C=C\C/C=C\C/C=C\C/C=C\C/C=C\CCC(=O)O     CFTR−/− mice   7.9 ± 1.5 nmol/mg
